Test system: OVCAR-4 ovarian
Assay: NCI-60 one-dose screen, 48 h
Details: 10 µM unless noted
The panel holds about 83,000 compounds, 20% with a hit somewhere; the sample as a whole holds those more often. Active and inactive are the calls of the source. The calls were made as follows: active = growth percent below 10; inactive = the rest.
Mark one answer only. Choices: active, inactive

Inquiry: Called result for `Cc1nc2cc(Nc3nc(Nc4ccc(F)cc4)nc(-c4ccc(Cl)cc4)n3)ccc2n1Cc1ccccc1`
Reply text: inactive

Inquiry: State the result this test recorded for `Cc1ccc(N(CSc2ccc(Cl)cc2)CSc2ccc(Cl)cc2)cc1` .
Reply text: inactive

Inquiry: # outcome recorded in this test, key = `Cc1ccc2c(N/N=C\c3ccco3)cc(C)nc2n1`
Reply text: inactive

Inquiry: # outcome recorded in this test, key = `Cc1ccccc1-n1nnc(C(=O)Nc2ccc(-c3ccccc3)cn2)c1C`
Reply text: inactive

Inquiry: // return assay outcome for `COC(=O)[C@H]1CCCN1C(=O)[C@H]1CCCN1C(=O)[C@@H](Cc1c[nH]c2ccccc12)NC(=S)Nc1cc(C(F)(F)F)cc(C(F)(F)F)c1`
Reply text: inactive

Inquiry: Status in this test for `COc1cc(/C=C/C(=O)CC(=O)/C=C/c2cc(Br)c(OC)c(OC)c2)cc(Br)c1OC` ?
Reply text: inactive

Inquiry: // outcome(item) with item = `CCN(CC)CCCNc1ccc(C)c2sc3ccccc3c(=O)c12`
Reply text: inactive

Inquiry: Recorded call for `O=C1/C(=C/c2ccc(Oc3ccccc3)cc2)N=C(c2ccccc2)N1CCc1cccs1` ?
Reply text: inactive

Inquiry: Call for entry `CC(=O)Nc1ccccc1-c1n[nH]c(=O)[nH]c1=O` :
Reply text: inactive

Inquiry: Hey, what did the test say about `Clc1ccc(Nc2nc(Nc3ccccc3)nc(Nc3ccc(-c4cc(-c5ccc(Cl)cc5)on4)cc3)n2)cc1` ?
Reply text: inactive

Inquiry: Please share the test call associated with `Cl.Fc1c[c-]c(-c2ccccn2)c(F)c1.[Pt].c1ccc([PH+](CC[PH+](c2ccccc2)c2ccccc2)c2ccccc2)cc1` .
Reply text: active

Inquiry: Recorded call for `C[C@]1(CO)C[C@@H](O)C[C@]2(C)[C@@H]1CC[C@@]13C[C@@H]4[C@@H](C[C@H]12)[C@]4(C)C3` ?
Reply text: inactive

Inquiry: Recorded test call requested for `O=[N+]([O-])c1cc2c(cc1Br)-c1ccccc1C2`
Reply text: inactive

* * *

Test system: OVCAR-4 ovarian
Assay: NCI-60 one-dose screen, 48 h (100 = growth as untreated, 0 = no growth, -100 = all killed)
Conditions: 10 µM unless noted
The panel holds about 83,000 compounds, 20% with a hit somewhere; the sample as a whole holds those more often.
# binarize growth: threshold 90% inclusive, high side Y, low side N

Inquiry: Reported growth at or above 90%? COc1cc(/C=C/C(=O)C2=C(/C=C/c3ccc(O)c(OC)c3)NC(=O)NC2c2ccc(O)c(OC)c2)ccc1O (centres undefined)
Reply text: Y

Inquiry: Assess whether reported growth for `O=C(c1ccc2ncc(-c3nc(NC4CC4)ncc3F)n2c1)N1CCOCC1` sits at 90% or higher.
Reply text: N

Inquiry: Can `Cc1nc2cc(Nc3nc(Nc4ccc(F)cc4)nc(-c4cccs4)n3)ccc2n1Cc1ccccc1` be said to have growth at or above 90%?
Reply text: N

Inquiry: Please tell me: is the compound O=C1CCC(N2C(=O)c3cccc(NCCOCCOCCNC(=O)c4cc5c(o4)C(=O)c4ccccc4C5=O)c3C2=O)C(=O)N1 (centres undefined) at or over 90% in terms of growth?
Reply text: N

Inquiry: Decide: growth of `CCCOC(=O)c1ccc2c(c1)[N+](=O)C(C(=O)c1ccccc1)=C(C(F)(F)F)[N+]2=O` >= 90%?
Reply text: N

Inquiry: Determine whether measured growth meets or exceeds 90% for `Cc1nc2ccc(Cl)cc2n1C`
Reply text: Y

Inquiry: Given the entry `Cc1cc(=O)[nH]n1-c1cc(Cl)ccc1N` , answer whether its growth meets or surpasses 90%.
Reply text: Y

Inquiry: Identify whether the reported growth of the following compound is 90% or greater: CC(C)(C)[Si](C)(C)OC1[C@@H](COC(N)=O)O[C@@H](n2cnc3c(N)ncnc32)[C@H]1O[Si](C)(C)C(C)(C)C (some centres undefined)
Reply text: Y

Inquiry: Is the recorded value of growth equal to or greater than 90% for this compound? `C(=C\c1ccccc1)/CN1CCN(C(c2ccccc2)c2ccccc2)CC1`
Reply text: N

Inquiry: Record O=C(N/N=C/c1ccc(OC(F)F)c(OC2CCCC2)c1)c1cnn2c1NC(c1ccccc1)C2 (centres undefined) ; criterion: growth no lower than 90%. Met?
Reply text: N

Inquiry: Check the entry `Cc1nc2cc(Nc3nc(Cl)nc(Nc4ccc(F)cc4)n3)ccc2n1Cc1ccccc1` : does growth equal or exceed 90%?
Reply text: N

Inquiry: Is it the case that `CN1CCc2c(Sc3ccc(C(=O)NO)cc3)c3ccccc3n2C1` has growth reaching or exceeding 90%?
Reply text: N

Inquiry: Is the recorded value of growth equal to or greater than 90% for this compound? `CCCCc1ccc(NC(=O)C(F)(F)F)cc1`
Reply text: Y

Inquiry: Check the entry `COc1ccccc1/C=C/C(=O)/C=C/c1ccccc1O` : does growth equal or exceed 90%?
Reply text: N

Inquiry: Given the entry `COc1nc2c(cc1S(=O)(=O)c1ccccc1)CCc1c-2cnn1-c1cccc(Cl)c1` , answer whether its growth meets or surpasses 90%.
Reply text: N

Inquiry: Kindly determine if growth recorded for `CN1CCC(OC2c3ccccc3CCc3ccccc32)CC1` is above or exactly 90%.
Reply text: Y

Inquiry: Determine whether this compound has growth no lower than 90%: `Cc1ccc(NS(=O)(=O)c2ccc(-c3cnc(C4CC4)o3)cc2)cc1`
Reply text: N

Inquiry: Test whether the compound `CCCCC/C=C\C/C=C/CCCCCCCCNC(=O)Nc1ccc([N+](=O)[O-])cc1` records growth of 90% or higher.
Reply text: Y

Inquiry: For this compound, is measured growth 90% or higher? Cc1ccc(S(=O)(=O)N2CCc3ccc(O)c4c3C2Cc2cc(Cl)ccc2-4)cc1 (centres undefined)
Reply text: N

Inquiry: Could you please find out whether `COc1ccccc1-n1c(SCc2cc(OC)c(OC)c(OC)c2)nc2ccc(Cl)cc2c1=O` has growth that meets 90% or exceeds it?
Reply text: N

Inquiry: Hello, I need to know if `Fc1c[c-]c(-c2ccccn2)c(F)c1.Fc1c[c-]c(-c2ccccn2)c(F)c1.[Cl][Pt+].[Cl][Pt+].c1ccc([PH+](C[PH+](c2ccccc2)c2ccccc2)c2ccccc2)cc1` has measured growth not below 90%. Thanks!
Reply text: N

Inquiry: Form field: growth at least 90%? Entry: COc1ccc(/C=N/NC(=O)c2cnn3c2NC(c2ccccc2)C3)cc1OC1CCCC1 (centres undefined)
Reply text: N

Inquiry: API: above_or_equal(metric=growth, cutoff=90%) for item `COc1cccc2c(=O)c3c(sc12)c(NCCN(C)C)nc1ccccc13`
Reply text: N

Inquiry: Given `Cc1cccc2c(=O)c3c(sc12)c(NCCCN)nc1ccccc13` , state whether its growth is at least 90%.
Reply text: N

Inquiry: Textbook exercise: given the entry `O=S(=O)(Nc1ncccn1)c1ccc(Nc2ccc3nnc(-c4ccncc4)n3n2)cc1` , state whether its growth is greater than or equal to 90%.
Reply text: Y

Inquiry: Check the entry CC1SC(c2ccc(Cl)cc2)N(CCc2cccs2)C1=O (centres undefined) : does growth equal or exceed 90%?
Reply text: N
